Listed below: % soluble aggregate values for each entry.
# EXPERIMENTAL PROTOCOL: Soluble aggregates of transiently expressed antibodies
# Type: physicochemical
# TEST SETTINGS: Protein A purified antibody
Please respond with the number in % and leave the unit unwritten.

Solved entries (count: 3):
If you can, please state the reported % soluble aggregate value of J1-183D variant 3: humanised/de-immunised J1-183D: J1-183D_VL_1 + J1-183D_VH_3 (antibody, V domains shown) VH: QVQLVQSGAELKKPGASVKVSCKVSGYAFTDYAIHWVRQAPGQGLEWMGIINTYYGDSKYAQKFQGRVTMTVDTSTSTAYMELSSLRSEDTAVYYCARGYDGFAYWGQGTLVTVSSASTKGP VL: DIQMTQSPSSLSASVGDRVTITCRTSENIYSYLTWYQQKPGKAPKLLVYNAKILAAGVPSRFSGSGSGTDFTLTISSLQPEDFATYYCQHHYDIPWTFGGGTKLEIKRT .
2.87

Using the record for J1-183D variant 15: humanised/de-immunised J1-183D: J1-183D_VL_4 + J1-183D_VH_3 (antibody, V domains shown) VH: QVQLVQSGAELKKPGASVKVSCKVSGYAFTDYAIHWVRQAPGQGLEWMGIINTYYGDSKYAQKFQGRVTMTVDTSTSTAYMELSSLRSEDTAVYYCARGYDGFAYWGQGTLVTVSSASTKGP VL: DIQMTQSPSSLSASVGDRVTITCRTSENIYSYLTWYQQKPGKAPKLLIYHAKILDSGVPSRFSGSGSGTDFTLTISSLQPEDFATYYCQHHYDIPWTFGGGTKLEIKRT , report its % soluble aggregate.
2.21

Look at this molecule and give its reported % soluble aggregate. J1-183D variant 6: humanised/de-immunised J1-183D: J1-183D_VL_2 + J1-183D_VH_2 (antibody, V domains shown) VH: QVQLVQSGAELKKPGASVKVSCKVSGYAFTDYAIHWIRQAPGQGLEWMGIINTYYGDSKYAQKFQGRVTMTVDTSTSTAYMELSSLRSEDTAVYYCARGYDGFAYWGQGTLVTVSSASTKGP VL: DIQMTQSPSSLSASVGDRVTITCRTSENIYSYLTWYQQKPGKAPKLLIYNAKTLASGVPSRFSGSGSGTDFTLTISSLQPEDFATYYCQHHYDIPWTFGGGTKLEIKRT
4.6

For the next question, use this molecule.
Can you look up the measured % soluble aggregate of J1-65D variant 16: humanised/de-immunised J1-65D: J1-65D_VL_4 + J1-65D_VH_4 (antibody, V domains shown) VH: QVQLVQSGAEVKKPGSSVKVSCKASGYTFTDYEMHWVRQAPGQGLEWMGAIQPGGGGTAYAQKFQGRVTITADKSTSTAYMELSSLRSEDTAVYYCTRRGYDDYPFAYWGQGTLVTVSS VL: DIQMTQSPSSLSASVGDRVTITCRASQGIHNYLAWYQQKPGKAPKLLIYNAKTLADAVPSRFSGSGSGTDYTLTISSLQPEDFATYYCQQFWSAPWTFGQGTKLEIK for me?
5.60
